test system: COLO 205; experiment: NCI tumour cell line growth inhibition, 48 h
Calls of active or inactive are those of the source. No stated cut-off is given here; in the data, active = GI50 up to about 1.1 µM and inactive = higher.
A correct response names exactly one class from T = active, F = inactive

Some solved entries appear below for comparison.
molecule: COc1cccc2c(Nc3ccc(S(=O)(=O)Nc4ncccn4)cc3)c3ccc([N+](=O)[O-])cc3nc12
system name: COLO 205
label value: F

molecule: CCC1OC(=O)CC(O)C(C)C(OC2OC(C)CC(N(C)C)C2O)C(CC=O)CC(C)C(=O)/C=C/C2(C)OC2C1C (stereo not given)
system name: COLO 205
label value: F

Check the results log: what was the call for `Cc1ccc(C)c(NC(=O)NCc2ccc(Cl)cc2)c1` ?
F

Can you handle CCOC(=O)C1C(C)C2(C#N)C(=N)OC1(C)C2(C#N)C#N (stereo not given) next?
F

Can you handle `N#C/N=C(\NCCc1c[nH]c2ccccc12)NCc1ccccc1` next?
F

Can you handle `O=C1NC(=O)/C(=C/c2ccc(S(=O)(=O)N/N=C/c3ccc(Cl)cc3)cc2)N1` next?
F

Can you handle COc1ccc(/C(=N\NC(=O)C(=O)NN)C(c2ccc(OC)cc2)C2(O)C(=O)Nc3ccccc32)cc1 (stereo not given) next?
F

Can you handle [N-]=[N+]=NCC1OC(n2cnc3c(N)ncnc32)C2OC12 (stereo not given) next?
F

Can you handle COc1ccc(Cc2nn(C3OC(COC(C)=O)C(OC(C)=O)C(OC(C)=O)C3OC(C)=O)c(=S)n(-c3ccc(OC)cc3)c2=O)cc1 (stereo not given) next?
F

Can you handle `c1ccc2c(c1)N=c1ccccc1=P21c2ccccc2Nc2ccccc21` next?
T

Can you handle `CC(C)C(=O)/C=C/c1c(Cl)cccc1Cl` next?
F

Can you handle CSC1(C)CC2C(CC1N1CCOCC1)C2(C)C (stereo not given) next?
F

Can you handle `O=C(CSc1nnc(-c2ccccn2)s1)N/N=C/c1ccccc1` next?
F

Can you handle `CC(C)C(=O)/C=C/c1ccc(Cl)cc1` next?
F
